Quick reference: viability at 24 h, 100 µM of the listed items.
# method: Cytotoxicity against RAW 264.7 cells (MTT assay)
# Type: cell-based, murine
# condition.label: mouse, at 100 μM, read-out: % Cell viability At 100 μM
reported.property: viability at 24 h, 100 µM (%)

[[record]]
compound = "C=C[C@]1(C)C=C2[C@@H](OC(C)=O)[C@@]3(O)OC[C@]4([C@@H]3C(C)(C)CC[C@@H]4O)[C@@]2(O)CC1 [Compound 3]"
observed_value = 97.2

[[record]]
compound = "C=CC1(C)C=C2C3(O)OCC4(C(OC(C)=O)CCC(C)(C)C4C3OC(C)=O)C2(O)CC1 (stereo not shown) [Compound 1]"
observed_value = 68.5

[[record]]
compound = "CC(=O)OC1CCC(C)(C)C(C=O)C12COC(=O)C1=C2C2CC3C1C3(C)C2 (stereo not shown) [Compound 4]"
observed_value = 1.55

[[record]]
compound = "C=C[C@]1(C)C=C2[C@](O)(CC1)[C@]13CO[C@@]2(O)[C@@H](OC(C)=O)[C@H]1C(C)(C)CC[C@@H]3O [Compound 2]"
observed_value = 20.8


###

# method: Cytotoxicity against RAW 264.7 cells (MTT assay)
# Assay type: cell-based, murine
# condition.label: mouse, at 10 μM, read-out: % Cell viability At 10 μM
# Procedure: The inhibitory assay followed the methods described previously with some modifications. […] The nitrite accumulation in the media was determined by the Griess reaction. […] Then, the absorbance at 546 nm was measured using a multimode microplate reader (ENVISION). The cytotoxicity of kaemtakols against RAW 264.7 was determined by a standard MTT assay.
Quick reference: viability at 24 h, 10 µM of the listed items.
reported.property: viability at 24 h, 10 µM (%)

[[record]]
compound = "C=C[C@]1(C)C=C2[C@@H](OC(C)=O)[C@@]3(O)OC[C@]4([C@@H]3C(C)(C)CC[C@@H]4O)[C@@]2(O)CC1"
reported_property = "viability at 24 h, 10 µM"
unit_info = "%"
observed_value = 92.5

[[record]]
compound = "CC(=O)OC1CCC(C)(C)C(C=O)C12COC(=O)C1=C2C2CC3C1C3(C)C2 (stereo not shown)"
reported_property = "viability at 24 h, 10 µM"
unit_info = "%"
observed_value = 89.7

[[record]]
compound = "C=C[C@]1(C)C=C2[C@](O)(CC1)[C@]13CO[C@@]2(O)[C@@H](OC(C)=O)[C@H]1C(C)(C)CC[C@@H]3O"
reported_property = "viability at 24 h, 10 µM"
unit_info = "%"
observed_value = 83

[[record]]
compound = "C=CC1(C)C=C2C3(O)OCC4(C(OC(C)=O)CCC(C)(C)C4C3OC(C)=O)C2(O)CC1 (stereo not shown)"
reported_property = "viability at 24 h, 10 µM"
unit_info = "%"
observed_value = 95.7

